- assay explanation: physchem
- Type: physicochemical
- condition context: pH 8, Solubility
Where no end group is shown, it is not given here.
result type: solubility at 3 h (µg/mL)
Lab book: enter the figure in µg/mL, no units written.

Request: Report measured solubility at 3 h; entry is FTTFTVT [CSP7 TFA]
Result: 1220

* * *

- assay explanation: physchem
- Type: physicochemical
- condition context: pH 6.5, Solubility
Where no end group is shown, it is not given here.
result type: solubility at 3 h (µg/mL)
Lab book: enter the figure in µg/mL, no units written.

Request: Report measured solubility at 3 h; entry is FTTFTVT [CSP7 acetate]
Result: 178
